EXPERIMENTAL SYSTEM: AXL (Homo sapiens, UniProt P30530)
Sequence (P30530 26-894): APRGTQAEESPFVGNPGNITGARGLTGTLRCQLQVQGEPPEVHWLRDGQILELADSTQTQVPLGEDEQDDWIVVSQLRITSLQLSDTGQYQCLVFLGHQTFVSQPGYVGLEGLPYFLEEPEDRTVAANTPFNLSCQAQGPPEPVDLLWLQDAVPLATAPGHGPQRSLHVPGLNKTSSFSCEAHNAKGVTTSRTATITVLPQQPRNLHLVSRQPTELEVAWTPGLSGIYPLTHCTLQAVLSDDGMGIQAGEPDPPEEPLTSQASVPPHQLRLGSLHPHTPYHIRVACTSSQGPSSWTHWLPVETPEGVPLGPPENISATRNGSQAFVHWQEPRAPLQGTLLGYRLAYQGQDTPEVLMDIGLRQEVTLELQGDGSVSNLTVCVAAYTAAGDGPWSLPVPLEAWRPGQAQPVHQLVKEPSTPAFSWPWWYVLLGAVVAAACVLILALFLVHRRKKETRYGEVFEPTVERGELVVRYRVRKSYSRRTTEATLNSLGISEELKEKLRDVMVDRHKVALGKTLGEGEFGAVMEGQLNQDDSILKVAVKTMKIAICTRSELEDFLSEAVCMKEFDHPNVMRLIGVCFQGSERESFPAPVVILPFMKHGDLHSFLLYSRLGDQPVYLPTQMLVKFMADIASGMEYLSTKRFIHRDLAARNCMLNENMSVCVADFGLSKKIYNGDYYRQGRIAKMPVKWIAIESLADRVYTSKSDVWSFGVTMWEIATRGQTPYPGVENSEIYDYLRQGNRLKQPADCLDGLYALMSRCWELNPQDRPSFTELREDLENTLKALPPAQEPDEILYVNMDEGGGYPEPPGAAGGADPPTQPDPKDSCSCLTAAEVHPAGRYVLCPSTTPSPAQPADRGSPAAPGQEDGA
ASSAY DETAILS: Caliper kinase profiling: AXL
ASSAY CONDITIONS: 0.01 μM
MEASURE NAME: inhibition of AXL in panel of 11 kinases

> print(dat)
                                   compound      value.reported
1  O=C(Nc1ccc(F)nc1)C1CC(O)CN1c1nc2c(c(Nc3cc(C4CC4)[nH]n3)n1)CCC2 (single isomer, unassigned) [Compound 10d]  strongly inhibited
2  O=C(Nc1cnccn1)C1CCCN1c1nc2c(c(Nc3cc(C4CC4)[nH]n3)n1)CCC2 (single isomer, unassigned)  strongly inhibited
3  O=C(Nc1ccc(F)nc1)C1CCN1c1nc2c(c(Nc3cc(C4CC4)[nH]n3)n1)CCC2 (racemic)  strongly inhibited
4  O=C(Nc1ccc(F)nc1)C1CC(O)CN1c1nc2c(c(Nc3cc(C4CC4)[nH]n3)n1)CCC2 (single isomer, unassigned) [Compound 10a]  strongly inhibited

Data origin, for the record: patent US9422267B2
